# Test description: Clearance in Beagle dog at 1 mg/kg, iv by UPLC-MS analysis
# Format: ADME, organism-based, Canis lupus familiaris
# Protocol conditions: in vivo
Metric: clearance

Form field clearance, entry "CS(=O)(=O)c1ccc(Oc2cc(F)cc(C#N)c2)c2c1[C@H](O)[C@H](F)[C@@H]2F" : 1.3 mL/min/kg

###

# Test description: Volume of distribution at steady state in Sprague-Dawley rat at 1 mg/kg, iv by UPLC-MS analysis
# Format: ADME, organism-based
# Protocol conditions: in vivo, read-out: Vdss
Metric: Vd (L/kg)
Give just the numeric value; L/kg need not be written.

Vd for "CS(=O)(=O)c1ccc(Oc2cc(F)cc(C#N)c2)c2c1[C@H](O)[C@H](F)[C@@H]2F" is 1.6

###

# Test description: Plasma concentration in patient with advanced solid tumor at 80 mg, po administered once daily measured on day 15 after 24 hrs
# Type: ADME, organism-based
# Protocol conditions: human
Metric: concentration at 24 h (ng/mL)
Expressed in ng/mL, but write only the number.

Data point: CS(=O)(=O)c1ccc(Oc2cc(F)cc(C#N)c2)c2c1[C@H](O)[C@H](F)[C@@H]2F [BELZUTIFAN] ; concentration at 24 h = 490

###

# System under test: UGT2B17 (Homo sapiens)
# Sequence (O75795 whole entry): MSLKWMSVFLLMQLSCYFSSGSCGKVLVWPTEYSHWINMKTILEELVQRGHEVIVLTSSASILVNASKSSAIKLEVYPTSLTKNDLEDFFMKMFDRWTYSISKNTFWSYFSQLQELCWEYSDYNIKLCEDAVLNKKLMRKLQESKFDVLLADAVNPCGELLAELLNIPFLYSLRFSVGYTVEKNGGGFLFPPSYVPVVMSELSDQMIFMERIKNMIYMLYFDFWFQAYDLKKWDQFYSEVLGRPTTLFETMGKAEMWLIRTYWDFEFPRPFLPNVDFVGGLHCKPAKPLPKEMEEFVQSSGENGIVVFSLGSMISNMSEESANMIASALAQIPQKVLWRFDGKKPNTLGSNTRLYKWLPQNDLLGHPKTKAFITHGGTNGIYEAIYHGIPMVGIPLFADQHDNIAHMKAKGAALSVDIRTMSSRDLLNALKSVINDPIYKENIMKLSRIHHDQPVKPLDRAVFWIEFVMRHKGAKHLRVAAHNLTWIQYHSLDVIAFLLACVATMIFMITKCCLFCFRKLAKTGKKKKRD
# Test description: Substrate activity at UGT2B17 in human intestinal microsomes assessed as enzyme-mediated glucuronidation by measuring Km at 2 to 1000 uM preincubated for 5 mins followed by UDPGA addition and measured after 60 mins by LC-MS/MS analysis
# Assay type: ADME, Intestine
Metric: Km at 1 h, up to 1000 µM (µM)
Write it as a number; the unit µM goes unstated.

Previously resolved entries follow.
In [3]: df
Out[3]:
                                   compound  reported_value
0  CS(=O)(=O)c1ccc(Oc2cc(F)cc(C#N)c2)c2c1[C@H](O)C(F)(F)[C@@H]2F              15
1  CS(=O)(=O)c1ccc(Oc2cc(F)cc(C#N)c2)c2c1[C@H](O)[C@H](F)[C@@H]2F [BELZUTIFAN]              15
2  CS(=O)(=O)c1ccc(Oc2cc(F)cc(C#N)c2)c2c1[C@H](O)[C@H](F)C2              28
3  CS(=O)(=O)c1ccc(Oc2cc(F)cc(C#N)c2)c2c1[C@H](O)[C@@H](F)C2              26

Km at 1 h, up to 1000 µM measured on "CS(=O)(=O)c1ccc(Oc2cc(F)cc(C#N)c2)c2c1[C@H](O)C[C@@H]2F" = 130

The compound "CS(=O)(=O)c1ccc(Oc2cc(F)cc(C#N)c2)c2c1[C@H](O)C(F)(F)C2" showed Km at 1 h, up to 1000 µM equal to 20

What the record says about "CS(=O)(=O)c1ccc(Oc2cc(F)cc(C#N)c2)c2c1[C@H](O)CC2" : Km at 1 h, up to 1000 µM is 40

###

# Test description: Half life in patient with advanced solid tumor at 20 mg, po administered once daily measured on day 15
# Format: ADME, organism-based
# Protocol conditions: human, in vivo
Metric: half-life

Entry CS(=O)(=O)c1ccc(Oc2cc(F)cc(C#N)c2)c2c1[C@H](O)[C@H](F)[C@@H]2F [BELZUTIFAN] — recorded half-life = 750 min
